Test system: MDA-MB-231 breast
test details: NCI-60 one-dose screen, 48 h (100 = growth as untreated, 0 = no growth, -100 = all killed)
test context: 10 µM unless noted
The panel holds about 83,000 compounds, 20% with a hit somewhere; the sample as a whole holds those more often. Calls of active or inactive are those of the source. How the source made its calls: active means growth percent below 10; inactive means the rest.
quantity name: growth

Task item: Report growth for COc1cc(NCc2cn(-c3ccc(C(=O)O)cc3)nc2-c2ccc(C(=O)O)cc2)cc(OC)c1OC please.
Reply: 76.4% (inactive)

Task item: Try O=S(=O)(/N=c1/n(-c2ccccc2)nc2n1CCN2C1=NCCN1)c1ccc(-c2ccccc2)cc1 next.
Reply: 86.2% (inactive)

Task item: Try Cc1cccc(/C=C2\N=C(c3ccccc3)N(c3ccc(S(N)(=O)=O)cc3)C2=O)c1 next.
Reply: 96.7% (inactive)

Task item: Try O=C(CSc1nc2ccc([N+](=O)[O-])cc2[nH]1)Nc1cccc(Cl)c1 next.
Reply: 41.1% (inactive)

Task item: Try CCCCOC(=O)c1cccc([N+](=O)[O-])c1 next.
Reply: 121% (inactive)

Task item: Try COc1ccc2c(c1)c(-c1noc(C(=O)c3cn(C)c4ncc(Br)cc34)n1)cn2C next.
Reply: 25.4% (inactive)

Task item: Try c1coc2occoc=2o1 next.
Reply: 108% (inactive)

Task item: Try COc1ccc(NC(=O)Nc2ccc(-c3cccnc3)cc2N2CCC(CO)CC2)cc1 next.
Reply: 34.2% (inactive)

Task item: Try CC[C@@](C)(NC(=O)[C@H](C)NC(=O)CCNC(=O)C(C)(C)NC(=O)[C@H](C)NC(=O)[C@@H]1CCCN1C(=O)[C@@](C)(CC)NC(=O)[C@H](Cc1ccccc1)NC(=O)C1CCCN1C(=O)C(C)(C)NC(=O)C1CCCN1C(=O)C(C)(C)NC(C)=O)C(=O)NCCC(=O)N[C@@H](CC(C)C)C(=O)NC(C)(C)C(=O)NCCC(=O)N[C@@H](CC(C)C)C(=O)NC(C)(C)C(=O)NC(C)(C)C(=O)N[C@@H](CC(C)C)C(=O)NCCC(=O)NCO (stereo partly drawn) next.
Reply: -88.5% (active)

Task item: Try COc1cc(-c2nc(SCCC(C)C)nc(Nc3ccc(S(N)(=O)=O)cc3)c2C#N)cc(OC)c1OC next.
Reply: 25.1% (inactive)

Task item: Try CCc1ccc(-c2ccc(COc3ccc(CC4SC(=O)NC4=O)cc3)cc2)cc1 (stereo not drawn) next.
Reply: 77.3% (inactive)

Task item: Try CCN(CC)CCCC(C)Nc1c2ccc(C)cc2nc2ccc(OC)cc12 (stereo not drawn) next.
Reply: 41.9% (inactive)

Task item: Try Cc1ccc(NC(=O)N[C@@H](Cc2cc(F)cc(F)c2)C(=O)N[C@@H]2C(=O)N3CCC[C@H]3C(=O)N3CCOC[C@H]3C(=O)N[C@@H](C)C(=O)N3C[C@H](C)C[C@H]3C(=O)O[C@H]2C)cc1 next.
Reply: 9.97% (active)

Task item: Try Clc1ccccc1/C=N\Nc1ccccn1 next.
Reply: 83.3% (inactive)

Task item: Try Cc1ccc(NCCN2CCCCC2)c2c(=O)c3ccccc3sc12 next.
Reply: 28.3% (inactive)

Task item: Try COc1ccc2[nH]c(C(=O)N3CCN(C(=O)OCc4ccc5c(Br)cc(Br)c(O)c5n4)CC3)cc2c1 next.
Reply: -84.6% (active)

Task item: Try CCOC(=O)COc1ccc2c(c1)O/C(=C\c1ccc(O)cc1)C2=O next.
Reply: 117% (inactive)

Task item: Try Oc1cc(Nc2ccnc3cc(Cl)ccc23)c2ncccc2c1 next.
Reply: 14.8% (inactive)
